- TARGET OR TEST SYSTEM: T1, hiR2-FL-R543Q-T7 (human, UniProt Q6PJF5 1-856)
- T1 sequence: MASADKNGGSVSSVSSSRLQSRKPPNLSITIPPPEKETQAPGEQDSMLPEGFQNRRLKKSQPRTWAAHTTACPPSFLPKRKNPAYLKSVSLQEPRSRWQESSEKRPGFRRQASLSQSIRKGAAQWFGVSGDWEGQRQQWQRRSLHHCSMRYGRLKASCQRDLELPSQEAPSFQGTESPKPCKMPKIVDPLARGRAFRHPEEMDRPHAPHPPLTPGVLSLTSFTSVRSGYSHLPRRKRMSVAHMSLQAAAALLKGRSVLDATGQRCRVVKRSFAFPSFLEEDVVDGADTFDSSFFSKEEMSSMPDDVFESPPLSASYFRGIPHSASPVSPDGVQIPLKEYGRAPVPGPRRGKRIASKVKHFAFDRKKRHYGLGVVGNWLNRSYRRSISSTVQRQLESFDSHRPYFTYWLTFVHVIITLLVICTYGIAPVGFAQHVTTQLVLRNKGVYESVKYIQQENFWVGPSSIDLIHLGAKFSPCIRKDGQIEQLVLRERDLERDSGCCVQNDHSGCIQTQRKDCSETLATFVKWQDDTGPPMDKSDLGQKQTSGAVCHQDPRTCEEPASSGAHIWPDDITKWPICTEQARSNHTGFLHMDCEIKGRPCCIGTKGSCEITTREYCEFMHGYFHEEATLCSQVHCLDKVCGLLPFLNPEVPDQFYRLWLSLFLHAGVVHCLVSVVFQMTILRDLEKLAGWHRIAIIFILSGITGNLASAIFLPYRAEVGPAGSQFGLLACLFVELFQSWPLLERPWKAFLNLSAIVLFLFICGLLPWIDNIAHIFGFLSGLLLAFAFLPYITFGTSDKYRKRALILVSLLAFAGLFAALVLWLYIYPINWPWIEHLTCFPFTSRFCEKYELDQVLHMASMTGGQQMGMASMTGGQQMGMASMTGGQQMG
- TEST SUMMARY: FACS, MEF-DKO cells, 3 µg/ml
# reported loss of binding vs wild type; entries follow

{"BINDER": "antibody 44 (antibody, V domains shown, mouse IgG, kappa light chain; also called clone #44; purified antibody 44) VH: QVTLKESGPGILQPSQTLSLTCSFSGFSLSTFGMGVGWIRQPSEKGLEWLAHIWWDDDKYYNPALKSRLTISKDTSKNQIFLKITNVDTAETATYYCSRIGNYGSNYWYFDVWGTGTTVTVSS VL: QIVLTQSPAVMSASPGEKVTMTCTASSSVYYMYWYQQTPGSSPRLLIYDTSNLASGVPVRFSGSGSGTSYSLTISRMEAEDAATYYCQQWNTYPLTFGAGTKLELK", "loss of binding vs wild type": "≥ 60%"}
{"BINDER": "antibody 43 (antibody, V domains shown, mouse IgG, kappa light chain; also called clone #43; purified antibody 43) VH: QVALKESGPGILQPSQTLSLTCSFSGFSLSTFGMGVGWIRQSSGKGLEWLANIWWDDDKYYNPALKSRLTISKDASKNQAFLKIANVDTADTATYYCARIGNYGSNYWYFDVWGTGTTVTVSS VL: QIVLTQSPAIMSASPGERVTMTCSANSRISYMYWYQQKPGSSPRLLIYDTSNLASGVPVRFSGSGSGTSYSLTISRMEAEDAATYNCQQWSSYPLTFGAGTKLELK", "loss of binding vs wild type": "≥ 95%"}
{"BINDER": "antibody 50 (antibody, V domains shown, mouse IgG, kappa light chain; also called clone #50; purified antibody 50) VH: QVQLQQSGAELVRPGASVKVSCKASGYAFSNYLIEWVKQRPGQGLEWIGVINPGSGFTKYNEKFKGKATLTADKSSSTAYMQLSSLTSEDSAVYFCARGLYRAMDYWGQGTSVTVSS VL: DIQMTQSPASQSASLGESVTITCLASQTIGTWLAWYQQKPGKSPQLLIYAAASLADGVPSRFSGGGSGTKFSFKISSLQAEDFVNYYCQQIYSTPYTFGGGTKLEIK", "loss of binding vs wild type": "≥ 30%"}
{"BINDER": "antibody 5 (antibody, V domains shown, mouse IgG, kappa light chain; also called clone #5; purified antibody 5) VH: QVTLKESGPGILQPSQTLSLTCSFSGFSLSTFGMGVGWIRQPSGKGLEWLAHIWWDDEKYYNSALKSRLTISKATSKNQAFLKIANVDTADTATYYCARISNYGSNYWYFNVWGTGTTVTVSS VL: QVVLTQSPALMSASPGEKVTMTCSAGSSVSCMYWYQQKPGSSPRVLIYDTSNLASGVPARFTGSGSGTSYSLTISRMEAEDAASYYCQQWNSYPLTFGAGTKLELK", "loss of binding vs wild type": "≥ 95%"}
{"BINDER": "antibody 3 (antibody, V domains shown, mouse IgG, kappa light chain; also called clone #3; purified antibody 3) VH: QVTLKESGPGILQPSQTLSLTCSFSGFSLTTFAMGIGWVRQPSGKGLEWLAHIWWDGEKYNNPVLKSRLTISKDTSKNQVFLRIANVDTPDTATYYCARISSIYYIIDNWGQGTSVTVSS VL: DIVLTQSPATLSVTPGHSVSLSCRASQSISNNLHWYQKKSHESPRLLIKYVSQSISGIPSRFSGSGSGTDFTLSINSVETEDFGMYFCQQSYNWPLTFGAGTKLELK", "loss of binding vs wild type": "≥ 60%"}
{"BINDER": "antibody 22 (antibody, V domains shown, mouse IgG, kappa light chain; also called clone #22; purified antibody 22) VH: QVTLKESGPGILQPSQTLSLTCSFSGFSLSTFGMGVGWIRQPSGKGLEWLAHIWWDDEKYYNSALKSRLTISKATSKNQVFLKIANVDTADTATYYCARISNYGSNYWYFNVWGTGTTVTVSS VL: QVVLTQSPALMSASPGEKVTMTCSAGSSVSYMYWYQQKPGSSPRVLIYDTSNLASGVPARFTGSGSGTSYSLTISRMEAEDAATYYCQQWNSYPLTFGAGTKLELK", "loss of binding vs wild type": "≥ 60%"}
{"BINDER": "antibody 34 (antibody, V domains shown, mouse IgG, kappa light chain; also called clone #34; purified antibody 34) VH: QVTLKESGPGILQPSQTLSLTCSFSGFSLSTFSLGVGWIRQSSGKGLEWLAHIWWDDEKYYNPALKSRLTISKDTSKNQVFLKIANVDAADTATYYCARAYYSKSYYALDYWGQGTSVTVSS VL: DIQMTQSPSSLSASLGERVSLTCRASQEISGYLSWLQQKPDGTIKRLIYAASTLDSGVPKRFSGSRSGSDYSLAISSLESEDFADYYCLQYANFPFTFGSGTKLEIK", "loss of binding vs wild type": "≥ 95%"}
{"BINDER": "antibody 42 (antibody, V domains shown, mouse IgG, kappa light chain; also called clone #42; purified antibody 42) VH: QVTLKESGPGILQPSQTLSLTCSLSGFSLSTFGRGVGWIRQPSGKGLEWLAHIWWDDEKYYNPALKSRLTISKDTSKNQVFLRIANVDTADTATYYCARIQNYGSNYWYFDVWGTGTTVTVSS VL: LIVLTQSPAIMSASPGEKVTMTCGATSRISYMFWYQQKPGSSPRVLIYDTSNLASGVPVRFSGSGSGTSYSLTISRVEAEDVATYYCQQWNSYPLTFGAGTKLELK", "loss of binding vs wild type": "≥ 95%"}

Values were extracted from patent US20240287172A1.
